Assayed target: Steroid 17-alpha-hydroxylase/17,20 lyase (Rattus norvegicus, UniProt P11715)
Sequence (P11715 whole entry): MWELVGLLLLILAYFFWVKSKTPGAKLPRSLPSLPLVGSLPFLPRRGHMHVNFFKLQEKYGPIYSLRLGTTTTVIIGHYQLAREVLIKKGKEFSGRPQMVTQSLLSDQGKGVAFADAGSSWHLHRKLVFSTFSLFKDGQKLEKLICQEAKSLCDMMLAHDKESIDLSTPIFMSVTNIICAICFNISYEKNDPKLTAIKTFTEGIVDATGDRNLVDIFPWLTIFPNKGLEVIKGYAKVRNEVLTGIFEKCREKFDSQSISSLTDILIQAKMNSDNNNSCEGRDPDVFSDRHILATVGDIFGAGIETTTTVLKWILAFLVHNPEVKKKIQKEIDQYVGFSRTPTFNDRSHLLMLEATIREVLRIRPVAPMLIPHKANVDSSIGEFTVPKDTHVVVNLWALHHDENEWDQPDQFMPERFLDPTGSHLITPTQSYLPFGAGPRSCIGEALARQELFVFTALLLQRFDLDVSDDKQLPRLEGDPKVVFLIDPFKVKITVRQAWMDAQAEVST
Procedure text: Inhibition of rat testicular CYP17
Assay type: ADME, tissue-based, Testis
Measured attribute: IC50

Param item: CC(c1ccc(-c2ccc(F)cc2)cc1)n1ccnc1 (stereo unspecified) ; param system: Steroid 17-alpha-hydroxylase/17,20 lyase (Rattus norvegicus, UniProt P11715); output IC50: 540 nM

###

Assayed target: Steroid 17-alpha-hydroxylase/17,20 lyase (Homo sapiens, UniProt P05093)
Sequence (P05093 whole entry): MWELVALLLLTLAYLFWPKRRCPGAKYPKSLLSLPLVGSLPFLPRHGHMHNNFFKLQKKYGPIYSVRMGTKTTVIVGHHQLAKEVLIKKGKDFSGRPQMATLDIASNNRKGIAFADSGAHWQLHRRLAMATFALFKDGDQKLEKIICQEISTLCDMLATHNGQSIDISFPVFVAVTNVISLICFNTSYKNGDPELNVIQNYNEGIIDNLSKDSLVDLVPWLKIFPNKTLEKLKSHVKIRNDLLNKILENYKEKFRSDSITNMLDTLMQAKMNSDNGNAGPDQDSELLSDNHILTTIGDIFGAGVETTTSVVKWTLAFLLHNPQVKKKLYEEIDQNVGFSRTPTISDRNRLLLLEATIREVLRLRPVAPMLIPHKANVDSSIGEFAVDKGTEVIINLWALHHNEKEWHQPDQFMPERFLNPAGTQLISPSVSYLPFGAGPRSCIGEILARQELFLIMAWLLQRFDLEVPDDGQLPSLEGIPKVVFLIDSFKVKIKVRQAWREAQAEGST
Procedure text: Inhibition of human CYP17 C17,20-lyase activity
Assay type: ADME
Measured attribute: pIC50
Give bare numbers, as −log10 of the molar value.

# compound O=c1c(O)cc([C@H]2Oc3cc(O)cc(O)c3C[C@H]2O)cc2c([C@H]3Oc4cc(O)cc(O)c4C[C@H]3O)cc(O)c(O)c12 ; its pIC50 = 4.60

###

Assayed target: Steroid 17-alpha-hydroxylase/17,20 lyase (Rattus norvegicus)
Procedure text: Inhibition of rat CYP17
Type: ADME
Measured attribute: pIC50
Give bare numbers, as −log10 of the molar value.

Summary for this compound, COc1ccc2c(c1)CCC(Cc1c[nH]cn1)C2 (stereo unspecified) : pIC50 is 6.00

###

Assayed target: Steroid 17-alpha-hydroxylase/17,20 lyase (Homo sapiens, UniProt P05093)
Procedure text: Inhibition of human testicular microsomal C17, 20 lyase activity using 17alpha-[1,2,6,7-3H] hydroxyprogesterone
Type: microsomes, Testis, Microsome
Measured attribute: pIC50
One number for each entry, as −log10 of the molar value.

Kindly note the recorded pIC50 for Brc1cc(Br)c2oc(Cn3ccnc3)cc2c1 , which is 6.73

###

Assayed target: Steroid 17-alpha-hydroxylase/17,20 lyase (Homo sapiens)
Procedure text: Inhibition of human testis C17, 20 lyase activity using 17alpha-[1,2-3H] hydroxyprogesterone incubated for 30 mins in presence of NADPH generating system
Format: tissue-based
Measured attribute: pIC50
One number for each entry, as −log10 of the molar value.

Measured on Steroid 17-alpha-hydroxylase/17,20 lyase (Homo sapiens), Clc1ccccc1C(c1cc2cc(Br)ccc2o1)n1ccnc1 (stereo unspecified) has a documented pIC50 of 8.40

###

Assayed target: Steroid 17-alpha-hydroxylase/17,20 lyase (Rattus norvegicus, UniProt P11715)
Procedure text: Inhibition of Spague-Dawley rat testicular microsome CYP17 using progesterone as substrate preincubated for 5 mins followed by enzyme addition measured after 20 mins in presence of NADPH
Type: ADME, microsomes, Testis
Measured attribute: pIC50
Answers are plain numbers, as −log10 of the molar value.

Simply: COc1cccc2c1CCC(c1ccncc1)C2=O (stereo unspecified) , Steroid 17-alpha-hydroxylase/17,20 lyase (Rattus norvegicus, UniProt P11715), pIC50 = 4.89

###

Assayed target: UniProt P08684
Sequence (P08684 whole entry): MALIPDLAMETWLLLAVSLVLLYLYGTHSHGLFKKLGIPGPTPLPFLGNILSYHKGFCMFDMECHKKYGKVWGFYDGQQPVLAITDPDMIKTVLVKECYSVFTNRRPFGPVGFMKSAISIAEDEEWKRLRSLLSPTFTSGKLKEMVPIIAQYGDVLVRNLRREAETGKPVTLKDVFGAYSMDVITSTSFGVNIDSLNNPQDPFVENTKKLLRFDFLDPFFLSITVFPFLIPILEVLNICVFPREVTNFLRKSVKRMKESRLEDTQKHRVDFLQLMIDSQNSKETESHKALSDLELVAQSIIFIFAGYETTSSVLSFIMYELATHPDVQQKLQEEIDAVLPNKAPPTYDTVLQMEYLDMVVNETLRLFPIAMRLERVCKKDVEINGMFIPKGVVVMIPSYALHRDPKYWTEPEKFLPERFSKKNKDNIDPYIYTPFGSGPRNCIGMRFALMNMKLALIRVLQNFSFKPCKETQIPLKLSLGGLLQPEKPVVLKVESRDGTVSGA
Procedure text: Inhibition of human recombinant CYP3A4
Measured attribute: IC50

c1cncc(Nc2ccc(-n3cnc4ccccc43)cc2)c1 has a reported IC50 of > 10 µM

###

Assayed target: Steroid 17-alpha-hydroxylase/17,20 lyase (Homo sapiens)
Procedure text: Inhibition of human recombinant CYP17A1 C17,20-lyase activity expressed in Escherichia coli using [1,2-3H]-17alpha-hydroxypregnenolone as substrate incubated for 15 mins
Type: ADME
Measured attribute: IC50 (µM)
One number for each entry, in µM.

// IC50 lookup, compound = COc1ccc(-c2ccc([C@](O)(c3c[nH]cn3)C(C)C)cc2)cc1OC , result: 0.011

###

Assayed target: Steroid 17-alpha-hydroxylase/17,20 lyase (Rattus norvegicus)
Procedure text: Inhibiton of Sprague-Dawley rat testicular microsomal suspension CYP17A1 C17, 20 lyase activity using [1,2-3H]-17alpha-hydroxyprogesterone as substrate incubated for 15 mins in presence of NADPH generating system
Type: ADME, microsomes, Testis, Microsome
Measured attribute: IC50
Form field: result (number plus unit)

C(=C/c1cccc(Cn2ccnc2)c1)/c1ccccc1 = 24 nM

Proceed to the following item.
Field IC50 (entry C(=C\c1cccc(-n2ccnc2)c1)/c1ccccc1 ) reads 230 nM
